B1: TRIM39 (parent)
chain: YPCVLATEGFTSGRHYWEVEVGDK

Variants of: B1
Test: protein stability index of a GFP-peptide fusion (GPS, HEK-293T) (PSI 1-6); higher = more stable;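 note: lentivirally expressed fusions sorted by FACS into six bins by GFP to DsRed ratio, PSI derived from sequencing read proportions per bin multiplied by bin number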
Conditions: c terminus: a fixed tail appended
Would you please tag the item 1.0 when its protein stability index is 2 or above, and 0.0 when it is below?

# VAR, ASSIGNED CATEGORY
rows = [
    ("W17F", 1.0),
    ("T11D", 1.0),
]

QUERY: Is the recorded value of protein stability index equal to or greater than 2 for this variant? T11I
RESULT: 1.0

QUERY: Is the recorded value of protein stability index equal to or greater than 2 for this variant? E18H
RESULT: 0.0

QUERY: Is the recorded value of protein stability index equal to or greater than 2 for this variant? E20F
RESULT: 0.0

QUERY: Is the recorded value of protein stability index equal to or greater than 2 for this variant? D23S
RESULT: 0.0

QUERY: Is the recorded value of protein stability index equal to or greater than 2 for this variant? V19N
RESULT: 1.0

QUERY: Is the recorded value of protein stability index equal to or greater than 2 for this variant? G13I
RESULT: 0.0

QUERY: Is the recorded value of protein stability index equal to or greater than 2 for this variant? V4R
RESULT: 0.0

QUERY: Is the recorded value of protein stability index equal to or greater than 2 for this variant? T11E
RESULT: 1.0

QUERY: Is the recorded value of protein stability index equal to or greater than 2 for this variant? P2D
RESULT: 1.0
